- experiment summary: Inhibition of tubulin polymerization in bovine brain
- Set-up: species or system Bos taurus
measure: IC50 (µM)

Input line: Need IC50 of `COc1ccc(CNc2nc(NCc3ccc(OC)cc3)n3nccc3n2)cc1` , thanks.
Output line: 3.4

Input line: # iterate: `COc1ccc(CNc2nc(NCc3ccc(OC)cc3)n3ncc(C(C)C)c3n2)cc1`
Output line: 3.6

Input line: # iterate: `COc1ccc(CNc2nc(NCc3ccc(OC)cc3)c3ncn(C(C)C)c3n2)cc1`
Output line: 3.6

###

- System: MCF7
- experiment summary: Cytotoxicity against human MCF7 cells after 72 hrs by MTT assay
- Format: functional, cell-based
- condition label: MCF7, 72 h
Reported pIC50 values are given for each entry in this list.
// pIC50: -log10(molar conc.)

Input line: Need pIC50 of `COc1ccc(CNc2nc(NCc3ccc(OC)cc3)n3ncc(C(C)C)c3n2)cc1` , thanks.
Output line: 4.29

***
Input line: Need pIC50 of `COc1ccc(CNc2nc(NCc3ccc(OC)cc3)n3nccc3n2)cc1` , thanks.
Output line: 4.47

Input line: # iterate: `COc1ccc(CNc2nc(NCc3ccc(OC)cc3)n3ncc(Br)c3n2)cc1`
Output line: 4.45

Input line: # iterate: `COc1ccc(CNc2nc(NCc3ccc(OC)cc3)c3ncn(C(C)C)c3n2)cc1`
Output line: 4.94

###

Reported IC50 values are given for each entry in this list.
- Tested on: SW480
- experiment summary: Cytotoxicity against human SW480 cells after 72 hrs by MTT assay
- Assay type: functional, cell-based
- condition label: SW480, 72 h
Give just the number in µM; leave the unit off.

Sample answers from the record:
Input line: Need IC50 of `COc1ccc(CNc2nc(NCc3ccc(OC)cc3)n3ncc(Br)c3n2)cc1` , thanks.
Output line: 26.5

Input line: # iterate: `COc1ccc(CNc2nc(NCc3ccc(OC)cc3)n3nccc3n2)cc1`
Output line: 8.1

***
Input line: Need IC50 of COc1ccc(CNc2nc(NCc3ccc(OC)cc3)c3ncn(C(C)C)c3n2)cc1 [MYOSEVERIN] , thanks.
Output line: 4.8

Input line: # iterate: `COc1ccc(CNc2nc(NCc3ccc(OC)cc3)n3ncc(C(C)C)c3n2)cc1`
Output line: 5.5

###

- Tested on: SW480
- experiment summary: Cell cycle arrest in human SW480 cells assessed as accumulation at G1 phase at 30 uM after 24 hrs by flow cytometry
- Format: functional
measure: Activity (%)
Give just the number in %; leave the unit off.

Input line: Need Activity of `COc1ccc(CNc2nc(NCc3ccc(OC)cc3)n3ncc(C(C)C)c3n2)cc1` , thanks.
Output line: 3

Input line: # iterate: `COc1ccc(CNc2nc(NCc3ccc(OC)cc3)c3ncn(C(C)C)c3n2)cc1`
Output line: 12.5

Input line: # iterate: `COc1ccc(CNc2nc(NCc3ccc(OC)cc3)n3nccc3n2)cc1`
Output line: 43

Input line: # iterate: `COc1ccc(CNc2nc(NCc3ccc(OC)cc3)n3ncc(Br)c3n2)cc1`
Output line: 62

###

- Tested on: SW48
- experiment summary: Cytotoxicity against human SW48 cells after 72 hrs by MTT assay
- Assay type: functional, cell-based
- condition label: SW48, 72 h
Reported pIC50 values are given for each entry in this list.
// pIC50: -log10(molar conc.)

Sample answers from the record:
Input line: Request: pIC50, test system SW48, entry `COc1ccc(CNc2nc(NCc3ccc(OC)cc3)c3ncn(C(C)C)c3n2)cc1`
Output line: 5.57

Input line: # iterate: `COc1ccc(CNc2nc(NCc3ccc(OC)cc3)n3ncc(C(C)C)c3n2)cc1`
Output line: 5.59

***
Input line: Request: pIC50, test system SW48, entry `COc1ccc(CNc2nc(NCc3ccc(OC)cc3)n3ncc(Br)c3n2)cc1`
Output line: 5.12

Input line: # iterate: `COc1ccc(CNc2nc(NCc3ccc(OC)cc3)n3nccc3n2)cc1`
Output line: 5.28

###

Reported Activity values are given for each entry in this list.
- Tested on: SW480
- experiment summary: Cell cycle arrest in human SW480 cells assessed as accumulation at G2/M phase at 30 uM after 24 hrs by flow cytometry
- Format: functional
Give just the number in %; leave the unit off.

Sample answers from the record:
Input line: Need Activity of `COc1ccc(CNc2nc(NCc3ccc(OC)cc3)n3ncc(Br)c3n2)cc1` , thanks.
Output line: 28

Input line: # iterate: `COc1ccc(CNc2nc(NCc3ccc(OC)cc3)n3ncc(C(C)C)c3n2)cc1`
Output line: 91.2

Input line: # iterate: `COc1ccc(CNc2nc(NCc3ccc(OC)cc3)n3nccc3n2)cc1`
Output line: 42

***
Input line: Need Activity of `COc1ccc(CNc2nc(NCc3ccc(OC)cc3)c3ncn(C(C)C)c3n2)cc1` , thanks.
Output line: 84.5

###

- Test system: HCT-116
- experiment summary: Cell cycle arrest in human HCT116 cells assessed as accumulation at G2/M phase at 30 uM after 24 hrs by flow cytometry
- Format: functional
Reported Activity values are given for each entry in this list.
Give just the number in %; leave the unit off.

Sample answers from the record:
Input line: Request: Activity, test system HCT-116, entry `COc1ccc(CNc2nc(NCc3ccc(OC)cc3)n3nccc3n2)cc1`
Output line: 51

Input line: # iterate: `COc1ccc(CNc2nc(NCc3ccc(OC)cc3)n3ncc(Br)c3n2)cc1`
Output line: 55.5

Input line: # iterate: `COc1ccc(CNc2nc(NCc3ccc(OC)cc3)c3ncn(C(C)C)c3n2)cc1`
Output line: 88

Consider the additional molecule presented here.
Input line: Request: Activity, test system HCT-116, entry `COc1ccc(CNc2nc(NCc3ccc(OC)cc3)n3ncc(C(C)C)c3n2)cc1`
Output line: 89.3

###

- Tested on: CCRF-CEM
- experiment summary: Cytotoxicity against human CEM cells after 72 hrs by MTT assay
- Assay type: functional, cell-based
Reported pIC50 values are given for each entry in this list.
// pIC50: -log10(molar conc.)

Sample answers from the record:
Input line: Need pIC50 of `COc1ccc(CNc2nc(NCc3ccc(OC)cc3)c3ncn(C(C)C)c3n2)cc1` , thanks.
Output line: 5.24

Input line: # iterate: `COc1ccc(CNc2nc(NCc3ccc(OC)cc3)n3nccc3n2)cc1`
Output line: 4.89

Input line: # iterate: `COc1ccc(CNc2nc(NCc3ccc(OC)cc3)n3ncc(Br)c3n2)cc1`
Output line: 4.41

***
Input line: Need pIC50 of `COc1ccc(CNc2nc(NCc3ccc(OC)cc3)n3ncc(C(C)C)c3n2)cc1` , thanks.
Output line: 5.27

These measurements were taken from ChEMBL document CHEMBL1138620.
